Reference source: patent US9284283B2

Listing: pIC50 of selected compounds
Target: recombinant human IL17a (binding to its receptor IL17R) (Homo sapiens, UniProt Q16552)
Construct: 177-IR (IL17R/Fc)
Sequence (Q16552 20-155 limits assumed): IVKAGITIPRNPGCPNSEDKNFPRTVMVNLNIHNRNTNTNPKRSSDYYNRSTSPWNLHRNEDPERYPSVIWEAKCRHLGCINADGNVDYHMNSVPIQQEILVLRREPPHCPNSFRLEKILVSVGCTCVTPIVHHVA
Test: IL-17 competition ELISA I (IL17a coated, IL17R/Fc binding)
pIC50: −log10 of the molar value.
ENDPOINT: pIC50

>>> val("O=C1CNC(=O)[C@@H](Cc2ccc(NC(=O)[C@H](Cc3ccc(O)cc3)NC(=O)Cc3ccccc3)cc2)NC(=O)CC2(CCCC2)CC(=O)NCCCCCN1 [Compound 183]")
"5.00 to 6.00"
>>> val("O=C1CNC(=O)[C@@H](Cc2ccc(NC(=O)[C@H](Cc3cccs3)NC(=O)Cc3ccccc3)cc2)NC(=O)CC2(CCCC2)CC(=O)NCCCCCN1 [Compound 228]")
"> 7.00"
>>> val("O=C1CNC(=O)[C@@H](Cc2ccc(NC(=O)[C@H](Cc3ccccc3Cl)NS(=O)(=O)c3ccccc3)cc2)NC(=O)CC2(CCCC2)CC(=O)NCCCCCN1 [Compound 271]")
"5.00 to 6.00"

====

Target: biotinylated human IL-17 (binding to IL17R/Fc) (Homo sapiens, UniProt Q16552)
Construct: 177-IR (IL17R/Fc)
Sequence (Q16552 20-155 limits assumed): as above
Experiment: IL-17 competition ELISA II (captured IL17R/Fc, biotinylated IL-17)
pIC50: −log10 of the molar value.
ENDPOINT: pIC50

>>> val("O=C1CC2(CCCC2)CC(=O)N[C@H](Cc2ccc(NC(=O)[C@H](Cc3ccccc3Cl)NC(=O)C3(c4ccc(F)cc4)CC3)cc2)C(=O)N[C@H](CO)C(=O)NCCCCCN1 [Compound 482]")
"> 7.00"
>>> val("O=C1CC2(CCCC2)CC(=O)N[C@H](Cc2ccc(NC(=O)[C@H](Cc3ccc(F)cc3Cl)NC(=O)Cc3ccc(F)cc3)cc2)C(=O)NCCOCCOCCN1 [Compound 502]")
"> 7.00"
>>> val("CC(=O)NC(C(=O)Nc1ccc(CC2NC(=O)CC3(CCCC3)CC(=O)OCCCCCN(C)C(=O)CNC2=O)cc1)C1CCCCC1 (stereo not drawn) [Compound 681]")
"> 7.00"

====

Target: IL17A (Homo sapiens, UniProt Q16552)
Sequence (Q16552 24-155): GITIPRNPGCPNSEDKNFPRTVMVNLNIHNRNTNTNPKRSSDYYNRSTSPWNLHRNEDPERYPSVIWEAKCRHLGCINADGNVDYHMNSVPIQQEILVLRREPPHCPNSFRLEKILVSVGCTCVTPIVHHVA
Experiment: Surface Plasmon Resonance (SPR) analysis of compound interactions with IL17A
Details: SPR binding to IL17A
ENDPOINT: Kd

>>> val("O=C1CCCNC(=O)[C@@H](Cc2ccc(NC(=O)[C@H](Cc3ccccc3Cl)NC(=O)Cc3ccccc3)cc2)NC(=O)CC2(CCCC2)CC(=O)NCCCN1")
"< 100 nM"
>>> val("O=C1CNC(=O)[C@@H](Cc2ccc(NC(=O)[C@H](Cc3ccccc3Cl)NC(=O)c3cccc(O)c3)cc2)NC(=O)CC2(CCCC2)CC(=O)NCCCCCN1")
"< 100 nM"
>>> val("O=C1CNC(=O)[C@@H](Cc2ccc(NC(=O)[C@H](Cc3ccccc3Cl)NC(=O)Cc3ccncc3)cc2)NC(=O)CC2(CCCC2)CC(=O)NCCCCCN1")
"< 100 nM"
>>> val("O=C1CNC(=O)[C@@H](Cc2ccc(NC(=O)[C@H](Cc3csc4ccccc34)NC(=O)Cc3ccccc3)cc2)NC(=O)CC2(CCCC2)CC(=O)NCCCCCN1")
"< 100 nM"
>>> val("O=C1CNC(=O)[C@@H](Cc2ccc(NC(=O)[C@H](Cc3cccs3)NC(=O)Cc3ccccc3)cc2)NC(=O)CC2(CCCC2)CC(=O)NCCCCCN1")
"< 100 nM"
>>> val("O=C1CNC(=O)[C@@H](Cc2ccc(NC(=O)[C@H](Cc3ccccc3Cl)NC(=O)c3ccccc3Cl)cc2)NC(=O)CC2(CCCC2)CC(=O)NCCCCCN1")
"< 100 nM"
>>> val("CC(=O)N[C@@H](Cc1ccccc1Cl)C(=O)Nc1ccc(C[C@H]2NC(=O)CC3(CCCC3)CC(=O)N(CCO)CCCCCNC(=O)CCCNC2=O)cc1")
"< 100 nM"
>>> val("O=C1CNC(=O)[C@@H](Cc2ccc(NC(=O)[C@H](Cc3ccco3)NC(=O)Cc3ccccc3)cc2)NC(=O)CC2(CCCC2)CC(=O)NCCCCCN1")
"< 100 nM"
>>> val("O=C1CCCNC(=O)[C@H](Cc2ccc(NC(=O)[C@H](Cc3ccccc3F)NC(=O)Cc3ccccc3)cc2)NC(=O)CC2(CCCC2)CC(=O)N[C@H](C(=O)O)CCCCN1")
"100 to 1000 nM"
>>> val("O=C1CNC(=O)[C@@H](Cc2ccc(NC(=O)[C@H](Cc3ccc(Br)s3)NC(=O)Cc3ccccc3)cc2)NC(=O)CC2(CCCC2)CC(=O)OCCCCCN1")
"100 to 1000 nM"
>>> val("CN1CC(=O)NCCCCCNC(=O)CC2(CCCC2)CC(=O)N[C@H](Cc2ccc(NC(=O)[C@H](Cc3ccccc3Cl)NC(=O)Cc3ccc(O)cc3)cc2)C1=O")
"< 100 nM"
